Catalogue of normalized growth values
Experiment: chemical genetic growth profiling, strain panel (AID 1159580);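 note: tested at 20 µM; growth read once vehicle control cultures reached saturation at 30 °C; 1 = growth at the plate median or of vehicle wells; lower values mean less growth of the strain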
Settings: S. cerevisiae deletion strains, growth OD, locus YGL086W, strain mad1, stronger effect = lower value
Screen size: about 5,500 compounds; about 2,000 (36%) were called active. About 18% were inconclusive and are not listed. The list shows a part of the results.
Reply: number alone, nothing else.

Consider the worked cases shown below.
MOLECULE: COc1ccc2c(=O)c(-c3cc4c(cc3OC)OCO4)coc2c1
normalized growth: 0.993
--
MOLECULE: C[C@]12CCC3C(CC[C@H]4CC(=O)CC[C@]34C)C1CCC2=O (some centres undefined)
normalized growth: 0.971
--
MOLECULE: O=[N+]([O-])/N=C1/NCCN1Cc1ccc(Cl)cc1
normalized growth: 0.979
--
MOLECULE: CC1(C)C=Cc2c(cc3occ(-c4ccc5c(c4)OCO5)c(=O)c3c2O)O1
normalized growth: 0.922
--
MOLECULE: CC(C)=CCOc1c2occc2cc2ccc(=O)oc12
normalized growth: 0.678

Item under review: `COc1cc(O)c(C(=O)c2ccccc2)c(OC)c1` . Reported normalized growth?
0.983

Item under review: `CC(C)=CCOc1cc2oc(=O)ccc2cc1O` . Reported normalized growth?
0.882

Item under review: `O=c1c(-c2ccc3c(c2)OCO3)coc2cc(O)ccc12` . Reported normalized growth?
0.983

Item under review: CCOC(=O)C1=C(C)NC(C)=C(C(=O)OC)C1c1cccc([N+](=O)[O-])c1 (centres undefined) . Reported normalized growth?
1.02

Item under review: CC(=O)OCC(=O)[C@@]1(O)CCC2C3CCC4=CC(=O)CC[C@]4(C)[C@@]3(F)[C@@H](O)C[C@@]21C (some centres undefined) . Reported normalized growth?
0.989

Item under review: `Cc1cc(C)nc(NS(=O)(=O)c2ccc(N)cc2)n1` . Reported normalized growth?
1

Item under review: `COc1ccc2c(c1)[nH]c1c(C)nccc12` . Reported normalized growth?
0.981

Item under review: `COc1cc(O)c(C)c(O)c1` . Reported normalized growth?
1.01

Item under review: O=C1OC(=O)C2C3CCC(O3)C12 (centres undefined) . Reported normalized growth?
0.995

Item under review: `c1coc(CNc2ncnc3nc[nH]c23)c1` . Reported normalized growth?
1

Item under review: `CC(C)=CCc1c(O)cc2occ(-c3ccc4c(c3)OCO4)c(=O)c2c1O` . Reported normalized growth?
1.05

Item under review: `O=c1[nH]cnc2nc[nH]c12` . Reported normalized growth?
0.955

Item under review: `Cn1c(=O)[nH]c(=O)c2[nH]cnc21` . Reported normalized growth?
0.977

Item under review: `COc1ccc2ccc(=O)oc2c1CC=C(C)C` . Reported normalized growth?
0.844
